molecular target: human CD3e (T-cell surface glycoprotein CD3 epsilon chain) (human, UniProt P07766 23-207); experiment: cell-based or functional assay
EC50, luciferase of Jurkat-Luc-NFAT cells; antibody from supernatant for assorted binders
Only the number, expressed in µg/mL, is required.

10A4-H1K1-IgG1-LALA (antibody, V domains shown, Humanized; human IgG1 with LALA mutations; also called H1K1 (humanized 10A4)) VH: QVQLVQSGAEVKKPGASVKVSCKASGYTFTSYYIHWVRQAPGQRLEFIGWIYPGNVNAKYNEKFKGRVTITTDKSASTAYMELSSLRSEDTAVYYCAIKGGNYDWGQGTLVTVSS VL: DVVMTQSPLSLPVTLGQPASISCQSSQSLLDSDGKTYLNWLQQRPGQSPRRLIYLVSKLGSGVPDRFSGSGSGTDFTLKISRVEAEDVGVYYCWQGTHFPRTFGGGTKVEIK = 0.294

Input 10A4-H3K2-IgG1-LALA (antibody, V domains shown, Humanized; human IgG1 with LALA mutations; also called H3K2 (humanized 10A4)) VH: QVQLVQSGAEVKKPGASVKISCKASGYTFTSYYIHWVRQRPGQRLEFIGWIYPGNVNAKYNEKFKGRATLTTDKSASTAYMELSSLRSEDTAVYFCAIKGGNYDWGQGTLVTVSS VL: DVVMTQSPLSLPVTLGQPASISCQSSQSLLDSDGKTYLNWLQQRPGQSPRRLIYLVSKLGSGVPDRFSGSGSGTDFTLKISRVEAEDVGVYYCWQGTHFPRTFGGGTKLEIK . Output EC50, luciferase of Jurkat-Luc-NFAT cells; antibody from supernatant: 0.205

Input 10A4-H2K2-IgG1-LALA (antibody, V domains shown, Humanized; human IgG1 with LALA mutations; also called H2K2 (humanized 10A4)) VH: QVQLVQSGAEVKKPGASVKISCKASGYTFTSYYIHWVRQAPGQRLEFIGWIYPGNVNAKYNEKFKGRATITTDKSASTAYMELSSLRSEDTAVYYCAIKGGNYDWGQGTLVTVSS VL: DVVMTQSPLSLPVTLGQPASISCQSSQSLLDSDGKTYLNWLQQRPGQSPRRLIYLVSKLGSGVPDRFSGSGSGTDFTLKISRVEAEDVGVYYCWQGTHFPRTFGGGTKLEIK . Output EC50, luciferase of Jurkat-Luc-NFAT cells; antibody from supernatant: 0.247

Input 10A4-H3K1-IgG1-LALA (antibody, V domains shown, Humanized; human IgG1 with LALA mutations; also called H3K1 (humanized 10A4)) VH: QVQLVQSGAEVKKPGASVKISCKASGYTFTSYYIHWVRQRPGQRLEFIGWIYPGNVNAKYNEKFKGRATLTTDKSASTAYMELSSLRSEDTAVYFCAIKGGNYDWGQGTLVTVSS VL: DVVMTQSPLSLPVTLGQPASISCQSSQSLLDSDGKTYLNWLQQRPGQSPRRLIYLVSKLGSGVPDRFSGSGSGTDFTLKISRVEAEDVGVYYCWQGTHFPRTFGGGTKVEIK . Output EC50, luciferase of Jurkat-Luc-NFAT cells; antibody from supernatant: 0.198

Input 10A4-H4K2-IgG1-LALA (antibody, V domains shown, Humanized; human IgG1 with LALA mutations; also called H4K2 (humanized 10A4)) VH: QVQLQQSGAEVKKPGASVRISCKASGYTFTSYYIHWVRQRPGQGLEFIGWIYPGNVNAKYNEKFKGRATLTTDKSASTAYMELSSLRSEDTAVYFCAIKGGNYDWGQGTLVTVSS VL: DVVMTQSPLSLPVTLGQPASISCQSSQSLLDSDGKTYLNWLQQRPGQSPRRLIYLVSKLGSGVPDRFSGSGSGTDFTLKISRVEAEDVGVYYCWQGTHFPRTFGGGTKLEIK . Output EC50, luciferase of Jurkat-Luc-NFAT cells; antibody from supernatant: 0.253

Input 10A4-H2K1-IgG1-LALA (antibody, V domains shown, Humanized; human IgG1 with LALA mutations; also called H2K1 (humanized 10A4)) VH: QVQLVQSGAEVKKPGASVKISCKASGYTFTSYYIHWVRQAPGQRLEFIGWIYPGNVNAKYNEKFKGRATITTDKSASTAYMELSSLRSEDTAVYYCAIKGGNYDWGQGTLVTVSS VL: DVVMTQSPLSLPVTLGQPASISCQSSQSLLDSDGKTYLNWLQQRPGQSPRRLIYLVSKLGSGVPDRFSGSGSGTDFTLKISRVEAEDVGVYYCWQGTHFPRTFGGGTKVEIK . Output EC50, luciferase of Jurkat-Luc-NFAT cells; antibody from supernatant: 0.266

Input 10A4-H1K2-IgG1-LALA (antibody, V domains shown, Humanized; human IgG1 with LALA mutations; also called H1K2 (humanized 10A4)) VH: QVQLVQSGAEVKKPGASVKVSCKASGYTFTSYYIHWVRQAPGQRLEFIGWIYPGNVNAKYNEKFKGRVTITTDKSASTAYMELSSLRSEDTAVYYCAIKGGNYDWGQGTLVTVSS VL: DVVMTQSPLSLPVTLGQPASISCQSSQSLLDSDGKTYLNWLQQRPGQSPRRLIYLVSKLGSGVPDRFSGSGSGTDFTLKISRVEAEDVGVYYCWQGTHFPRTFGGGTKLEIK . Output EC50, luciferase of Jurkat-Luc-NFAT cells; antibody from supernatant: 0.272

Input 10A4-H4K1-IgG1-LALA (antibody, V domains shown, Humanized; human IgG1 with LALA mutations; also called H4K1 (humanized 10A4)) VH: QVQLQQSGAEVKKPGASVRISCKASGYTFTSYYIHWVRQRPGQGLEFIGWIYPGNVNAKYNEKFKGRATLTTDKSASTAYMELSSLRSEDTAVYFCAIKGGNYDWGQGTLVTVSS VL: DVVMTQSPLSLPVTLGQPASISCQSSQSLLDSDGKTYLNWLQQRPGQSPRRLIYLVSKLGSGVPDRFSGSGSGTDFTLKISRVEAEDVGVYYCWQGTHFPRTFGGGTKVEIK . Output EC50, luciferase of Jurkat-Luc-NFAT cells; antibody from supernatant: 0.234
